Catalogue of molecules with associated pIC50
target-desc: PRMT5 (Homo sapiens)
Construct: purchased Viva (custom protein)
Sequence (O14744 whole entry): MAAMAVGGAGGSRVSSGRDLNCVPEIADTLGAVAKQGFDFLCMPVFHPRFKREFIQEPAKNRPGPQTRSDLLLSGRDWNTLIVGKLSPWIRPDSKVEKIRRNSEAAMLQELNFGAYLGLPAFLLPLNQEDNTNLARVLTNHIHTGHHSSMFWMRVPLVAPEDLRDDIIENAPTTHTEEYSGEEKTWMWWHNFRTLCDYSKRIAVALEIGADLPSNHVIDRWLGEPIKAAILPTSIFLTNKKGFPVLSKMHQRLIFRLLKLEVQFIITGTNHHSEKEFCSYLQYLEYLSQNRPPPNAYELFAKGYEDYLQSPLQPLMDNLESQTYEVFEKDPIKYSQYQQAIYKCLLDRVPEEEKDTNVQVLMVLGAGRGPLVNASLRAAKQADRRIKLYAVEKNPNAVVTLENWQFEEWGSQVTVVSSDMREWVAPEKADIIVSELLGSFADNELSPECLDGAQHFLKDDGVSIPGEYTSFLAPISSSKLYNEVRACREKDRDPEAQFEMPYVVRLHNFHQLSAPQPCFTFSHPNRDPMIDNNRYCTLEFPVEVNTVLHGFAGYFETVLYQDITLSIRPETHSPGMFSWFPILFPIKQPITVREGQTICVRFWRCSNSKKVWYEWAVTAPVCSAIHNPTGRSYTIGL
Sequence (Q9BQA1 whole entry partner): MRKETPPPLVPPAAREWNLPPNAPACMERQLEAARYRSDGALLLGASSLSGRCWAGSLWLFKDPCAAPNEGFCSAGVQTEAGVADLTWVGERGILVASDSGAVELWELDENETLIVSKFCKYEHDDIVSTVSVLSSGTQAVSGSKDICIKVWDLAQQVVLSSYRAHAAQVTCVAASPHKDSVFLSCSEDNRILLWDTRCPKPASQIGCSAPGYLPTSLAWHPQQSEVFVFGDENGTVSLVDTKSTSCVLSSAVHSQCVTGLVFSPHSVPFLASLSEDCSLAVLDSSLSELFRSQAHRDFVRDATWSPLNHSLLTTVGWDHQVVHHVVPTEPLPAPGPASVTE
experiment-summary: PRMT5 biochemical IC50 assay with MTA as cofactor
reported-conditions: PRMT5, MTA as cofactor; read-out: MTA IC50
pIC50: −log10 of the molar value.

// solved cases for pIC50 follow
INSERT INTO assay_data (molecule, observed_measurement) VALUES
  ('CNc1ccc([C@H]2CC[C@H](C)CN2C(=O)C(=O)Nc2cnc(N)c(C)c2)cn1 (single isomer, unassigned)', '< 6.30'),
  ('CCc1cc(NC(=O)C(=O)N2C[C@@H](C)CC[C@@H]2c2ccc(N3CCN(C)CC3)cc2)cnc1N (single isomer, unassigned) [Compound 1371]', '> 7.30'),
  ('Cc1cc(NC(=O)C(=O)N2CCCCC2c2cccc3scnc23)cnc1N (centres unmarked)', '6.30 to 7.30'),
  ('C[C@H]1CC[C@H](c2ccc(C(F)(F)F)cc2)N(C(=O)C(=O)Nc2cncc(C(N)=O)c2)C1 (single isomer, unassigned)', '> 7.30'),
  ('C[C@@H]1CC[C@@H](c2ccc(N)nc2)N(C(=O)C(=O)Nc2cncc(C(N)=O)c2)C1 (racemic) [Compound 224]', '> 7.30'),
  ('CNS(=O)(=O)c1ccc([C@H]2CC[C@H](C)CN2C(=O)C(=O)Nc2cncc(C(N)=O)c2)cc1 (single isomer, unassigned)', '> 7.30'),
  ('CCc1cc(NC(=O)C(=O)N2C[C@@H](C)CC[C@@H]2c2ccc3ccc(C4CCN(C)CC4)nc3c2)cnc1N', '> 7.30'),
  ('Cc1cc(NC(=O)C(=O)N2CCCC[C@@H]2c2cccnc2)cnc1N (single isomer, unassigned)', '6.30 to 7.30');

Req: State its pIC50 for this molecule: Cc1cc(NC(=O)C(=O)N2C[C@@H]3CC[C@@H](C3)[C@H]2c2ccccc2)cnc1N (single isomer, unassigned)
Resp: > 7.30

Req: State its pIC50 for this molecule: C[C@H]1CC[C@H]([C@@H]2CCC[C@H](O)C2)N(C(=O)C(=O)Nc2cncc(C(N)=O)c2)C1 (single isomer, unassigned)
Resp: < 6.30

Req: State its pIC50 for this molecule: Cc1cc(NC(=O)C(=O)N2C[C@H](C)CC[C@H]2c2ccc3[nH]nc(N)c3c2)cnc1C (single isomer, unassigned)
Resp: > 7.30

Req: State its pIC50 for this molecule: Cc1cc([C@H]2CC[C@H](C)CN2C(=O)C(=O)Nc2cncc(C(N)=O)c2)cc(C)c1O (single isomer, unassigned)
Resp: < 6.30

Req: State its pIC50 for this molecule: CCc1cc(NC(=O)C(=O)N2C[C@@H](C)CC[C@@H]2c2ccc3nn([C@@H]4CCCN(C)C4)cc3c2)cnc1N (single isomer, unassigned)
Resp: > 7.30

Req: State its pIC50 for this molecule: Cc1cc(NC(=O)C(=O)N2C[C@H](C)CC[C@H]2[C@H]2CC[C@H](O)CC2)cnc1N (single isomer, unassigned)
Resp: > 7.30

====

Catalogue of compounds with associated IC50
target-desc: PRMT5 (Homo sapiens)
Construct: purchased Viva (custom protein)
experiment-summary: PRMT5 biochemical IC50 assay with SAM as cofactor
reported-conditions: PRMT5, SAM as cofactor; read-out: SAM IC50

// solved cases for IC50 follow
INSERT INTO results (compound, observed_measurement) VALUES
  ('NC(=O)c1cncc(NC(=O)C(=O)N2C[C@@H](CO)CC[C@@H]2c2ccccc2)c1 (racemic)', '50 to 500 nM'),
  ('Cc1cccc([C@@H]2CC[C@@H](C)CN2C(=O)C(=O)Nc2cncc(C(N)=O)c2)c1 (single isomer, unassigned)', '> 500 nM');

Now turn to the next compound.
Req: State its IC50 for this compound: CNc1ccc([C@@H]2CC[C@@H](C)CN2C(=O)C(=O)Nc2cncc(C(N)=O)c2)cn1 (racemic) [Compound 209]
Resp: 50 to 500 nM
